test: C. albicans growth with fluconazole, confirmation, fluorescence, retest (AID 2467); type: functional, cell-based
The source made the active and inactive calls. Cut-off read from the data, not from the text of the source: actives have a measured EC50 and inactives only a lower limit.
# key: entry, value: EC50

# annotated cases, reported EC50 shown
Cc1ccc(C(=O)N/C(=C/c2ccc(-c3cc(C(F)(F)F)ccc3Cl)o2)C(=O)NCc2cccnc2)cc1 :: > 38 µM (not active)
N#CC1CC(c2ccccc2)=NN1c1ccccc1[N+](=O)[O-] (stereo unspecified) :: > 38 µM (not active)
Oc1nc(S)nnc1Cc1ccc(Cl)c(Cl)c1 :: 0.241 µM (active)
Cc1cc(NC(=O)c2cccc(Oc3ccccc3)c2)[nH]n1 :: 1.87 µM (active)
CSc1ncc(Cl)c(C(=O)C(C#N)c2nc(O)c3cc(C)cc(C)c3n2)n1 (stereo unspecified) :: 2.48 µM (active)

Alright, here's another molecule for you.
Query: EC50; subject: N=C(N)c1ccc(/C=C/c2ccc(C(=N)N)cc2O)cc1
0.529 µM (active)
